- targetOrTestSystem: HiBiT-BRM fusion protein in stable HeLa cell line (Homo sapiens, UniProt P51531)
- Construct: expressed in transfected cells
- Sequence (P51531 whole entry, the tested form may be a part): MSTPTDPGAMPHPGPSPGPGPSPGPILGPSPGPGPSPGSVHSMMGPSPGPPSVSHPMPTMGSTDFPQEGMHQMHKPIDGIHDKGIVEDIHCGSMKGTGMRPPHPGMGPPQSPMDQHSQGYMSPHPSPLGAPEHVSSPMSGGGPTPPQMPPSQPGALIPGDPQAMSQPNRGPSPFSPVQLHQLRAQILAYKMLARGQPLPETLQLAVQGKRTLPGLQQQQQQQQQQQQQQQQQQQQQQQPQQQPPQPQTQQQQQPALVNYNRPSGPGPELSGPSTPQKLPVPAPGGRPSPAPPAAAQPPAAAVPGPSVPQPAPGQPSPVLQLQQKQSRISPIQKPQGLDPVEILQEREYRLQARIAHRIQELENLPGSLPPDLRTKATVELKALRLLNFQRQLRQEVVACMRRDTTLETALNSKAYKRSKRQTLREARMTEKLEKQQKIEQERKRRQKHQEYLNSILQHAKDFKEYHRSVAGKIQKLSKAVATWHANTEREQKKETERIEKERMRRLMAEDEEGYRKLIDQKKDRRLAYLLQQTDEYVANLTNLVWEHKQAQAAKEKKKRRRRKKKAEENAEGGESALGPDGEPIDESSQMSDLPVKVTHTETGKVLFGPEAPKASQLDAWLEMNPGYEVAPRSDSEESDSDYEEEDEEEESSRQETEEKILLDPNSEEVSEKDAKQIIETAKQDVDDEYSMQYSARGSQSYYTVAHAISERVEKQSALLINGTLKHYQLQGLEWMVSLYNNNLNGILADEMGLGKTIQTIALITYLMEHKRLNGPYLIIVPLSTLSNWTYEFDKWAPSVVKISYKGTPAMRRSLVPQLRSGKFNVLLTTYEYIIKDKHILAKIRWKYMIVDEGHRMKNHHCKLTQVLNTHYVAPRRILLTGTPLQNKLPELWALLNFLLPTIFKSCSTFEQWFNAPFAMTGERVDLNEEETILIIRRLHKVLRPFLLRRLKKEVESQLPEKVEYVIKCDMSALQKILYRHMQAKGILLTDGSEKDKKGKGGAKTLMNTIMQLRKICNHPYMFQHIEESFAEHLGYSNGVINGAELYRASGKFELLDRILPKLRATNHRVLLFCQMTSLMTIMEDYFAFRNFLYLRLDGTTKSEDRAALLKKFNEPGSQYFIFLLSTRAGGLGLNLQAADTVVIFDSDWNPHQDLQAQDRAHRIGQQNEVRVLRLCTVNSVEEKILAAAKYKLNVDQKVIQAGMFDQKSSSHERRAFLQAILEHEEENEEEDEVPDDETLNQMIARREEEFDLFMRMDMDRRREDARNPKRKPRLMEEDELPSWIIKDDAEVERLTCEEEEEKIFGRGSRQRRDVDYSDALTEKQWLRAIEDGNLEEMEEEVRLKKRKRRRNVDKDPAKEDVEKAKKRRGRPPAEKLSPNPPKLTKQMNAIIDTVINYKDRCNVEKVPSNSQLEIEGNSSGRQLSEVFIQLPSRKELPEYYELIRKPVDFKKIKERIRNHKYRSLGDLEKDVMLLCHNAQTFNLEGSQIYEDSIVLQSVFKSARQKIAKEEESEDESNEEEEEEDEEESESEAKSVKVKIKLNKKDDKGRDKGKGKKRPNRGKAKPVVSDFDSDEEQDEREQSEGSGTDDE
- methodNotes: HiBiT-BRM cell-based degradation assay (Nano-Glo HiBiT Lytic Detection, 24 h)
- Parameters: scale not given here
- runParameters: HeLa HiBiT-BRM cells, read-out: BRM HiBit Degradation IC50
- Experimental: Procedure: A stable HeLa cell line expressing HiBiT-BRM was generated. On day 0, 5000 cells were seeded in 40 μL of media into each well of 384-well cell culture plates. […] The plates were shaken for 10 minutes at room temperature and the bioluminescence read using an EnVision plate reader (PerkinElmer). The degradation % was calculated using the following formula: % degradation=100%−100%×(Lumsample−LumLC)/(LumHC−LumLC). […]
measurementName: DC50

- molecule: "Cc1ncsc1-c1ccc([C@H](C)NC(=O)[C@@H]2C[C@@H](O)CN2C(=O)[C@@H](c2cn(-c3ccc4nnc(-c5ccccc5O)cc4c3)nn2)C(C)C)cc1 (single isomer, unassigned)"
  result: "< 10 nM"
- molecule: "Cc1ncsc1-c1ccc([C@H](C)NC(=O)[C@@H]2C[C@@H](O)CN2C(=O)[C@@H](c2cc(N3CC4(CN(c5cc(Cl)c6cc(-c7ccccc7O)nnc6c5)C4)C3)no2)C(C)C)cc1"
  result: "< 10 nM"
- molecule: "Cc1ncsc1-c1ccc([C@H](C)NC(=O)[C@@H]2C[C@@H](O)CN2C(=O)[C@@H](c2cc(N3CC[C@H](c4ccc5nnc(-c6ccccc6O)cc5c4)C3)no2)C(C)C)cc1"
  result: "> 10 nM"
- molecule: "Cc1nc(N2CCC(c3ccc4cc(-c5ccccc5O)nnc4c3)CC2)ccc1-c1cc([C@H](C(=O)N2C[C@H](O)C[C@H]2C(=O)N[C@@H](C)c2ccc(-c3scnc3C)cc2)C(C)C)on1"
  result: "< 10 nM"
- molecule: "Cc1ncsc1-c1ccc([C@H](C)NC(=O)[C@@H]2C[C@@H](O)CN2C(=O)C(F)(c2cc(N3CC4(CN(c5ccc6cc(-c7ccccc7O)nnc6c5)C4)C3)no2)C(C)C)cc1 (stereo in doubt)"
  result: "< 10 nM"
- molecule: "Cc1ncsc1-c1ccc([C@H](C)NC(=O)[C@@H]2C[C@@H](O)CN2C(=O)[C@@H](c2cc(N3CCC(CN4CC(c5ccc6cc(-c7ccccc7O)nnc6c5)C4)CC3)no2)C(C)C)cc1"
  result: "> 10 nM"
- molecule: "Cc1ncsc1-c1ccc([C@H](C)NC(=O)[C@@H]2C[C@@H](O)CN2C(=O)[C@@H](c2cc(N3CCC4(CCN(c5ccc6nnc(-c7ccccc7O)cc6c5)C4)C3)no2)C(C)C)cc1 (stereo partly shown)"
  result: "< 10 nM"
- molecule: "CC(C)[C@@H](C(=O)N1C[C@H](O)C[C@H]1C(=O)N[C@@H](C)c1ccc(Br)cc1)n1cc(-c2ccc3nnc(-c4cccc(F)c4O)cc3c2)nn1"
  result: "< 10 nM"
- molecule: "Cc1ncsc1-c1ccc([C@H](C)NC(=O)[C@@H]2C[C@@H](O)CN2C(=O)[C@H](C(C)C)n2cc(C3CC4(CC(c5ccc6nnc(-c7ccccc7O)cc6c5)C4)C3)nn2)cc1 (stereo partly shown)"
  result: "< 10 nM"
- molecule: "Cc1ncsc1-c1ccc([C@H](C)NC(=O)[C@@H]2C[C@@H](O)CN2C(=O)[C@@H](c2ccnc(N3CC4(CN(c5ccc6cc(-c7ccccc7O)nnc6c5)C4)C3)c2)C(C)C)cc1"
  result: "> 10 nM"
- molecule: "Cc1ncsc1-c1ccc([C@H](C)NC(=O)[C@@H]2C[C@@H](O)CN2C(=O)C(C(C)C)n2cc(N3CCC4(CCN(c5ccc6cc(-c7ccccc7O)nnc6c5)CC4)C3)nn2)cc1 (stereo partly shown)"
  result: "< 10 nM"
- molecule: "Cc1ncsc1-c1ccc([C@H](C)NC(=O)[C@@H]2C[C@@H](O)CN2C(=O)[C@@H](c2cc(N3CCN4CCN(c5ccc6cc(-c7ccccc7O)nnc6c5)CC4C3)no2)C(C)C)cc1 (stereo partly shown)"
  result: "< 10 nM"
- molecule: "Cc1ncsc1-c1ccc(C(C)NC(=O)C2CC(O)CN2C(=O)[C@@H](c2cc(N3CCN([C@H]4CCN(Cc5cc6nnc(-c7ccccc7O)cc6cc5Cl)CC4(F)F)CC3)no2)C(C)C)cc1 (stereo in doubt)"
  result: "> 10 nM"
- molecule: "Cc1ncsc1-c1ccc([C@H](C)NC(=O)[C@@H]2C[C@@H](O)CN2C(=O)[C@@H](c2cc(C3CC4(C3)CN(c3ccc5cc(-c6ccccc6O)nnc5c3)C4)no2)C(C)C)cc1"
  result: "< 10 nM"
- molecule: "Cc1ncsc1-c1ccc([C@H](C)NC(=O)[C@@H]2C[C@@H](O)CN2C(=O)[C@@H](c2cc(N3CCC4(CCN(c5ccc6cc(-c7ccccc7O)nnc6c5)C4)CC3)no2)C(C)C)cc1"
  result: "< 10 nM"
- molecule: "Cc1ncsc1-c1ccc([C@H](C)NC(=O)[C@@H]2C[C@@H](O)CN2C(=O)[C@@H](c2cccc(N3CC4(C3)CN(c3ccc5cc(-c6ccccc6O)nnc5c3)C4)c2)C(C)C)cc1"
  result: "> 10 nM"
- molecule: "Cc1ncsc1-c1ccc([C@H](C)NC(=O)[C@@H]2C[C@@H](O)CN2C(=O)C(C(C)C)n2cc(N3CCN(CN4CCN(c5ccc6nnc(-c7ccccc7O)cc6c5)CC4)CC3)nn2)cc1 (stereo partly shown)"
  result: "< 10 nM"
- molecule: "CC(C)C(C(=O)N1C[C@H](O)C[C@H]1C(=O)N[C@@H](C)c1ccc(C#N)cc1)c1cc(N2CC3(CN(c4ccc5cc(-c6ccccc6O)nnc5c4)C3)C2)no1 (stereo partly shown)"
  result: "< 10 nM"
- molecule: "Cc1ncsc1-c1ccc([C@H](C)NC(=O)[C@@H]2C[C@@H](O)CN2C(=O)[C@H](c2cc(-c3cnc(N4CCN(c5ccc6cc(-c7ccccc7O)nnc6c5)CC4)nc3)no2)C(C)C)cc1"
  result: "> 100 nM"

// data source = patent US20260193264A1
